# EXPERIMENTAL SYSTEM: UniProt:P33261
# Sequence (P33261 whole entry): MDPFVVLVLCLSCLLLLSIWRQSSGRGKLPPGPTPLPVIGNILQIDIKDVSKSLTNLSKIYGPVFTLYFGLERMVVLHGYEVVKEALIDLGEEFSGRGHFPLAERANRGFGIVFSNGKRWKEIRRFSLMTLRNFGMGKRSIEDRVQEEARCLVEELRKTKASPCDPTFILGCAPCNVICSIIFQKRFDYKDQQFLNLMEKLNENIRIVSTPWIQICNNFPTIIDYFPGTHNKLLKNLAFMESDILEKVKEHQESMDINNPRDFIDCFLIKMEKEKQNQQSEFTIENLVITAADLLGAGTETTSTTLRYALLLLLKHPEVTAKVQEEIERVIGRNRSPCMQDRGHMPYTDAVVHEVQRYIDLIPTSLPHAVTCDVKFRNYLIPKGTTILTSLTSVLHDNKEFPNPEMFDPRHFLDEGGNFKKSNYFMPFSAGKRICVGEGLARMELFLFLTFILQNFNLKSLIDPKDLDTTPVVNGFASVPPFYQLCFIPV
# PROTOCOL NOTES: Inhibition of CYP2C19 (unknown origin)
QUANTITY MEASURED: EC50

// EC50 lookup, key: C[C@H](O)CNC(=O)c1ncc(S(=O)(=O)c2ccc(OC(F)(F)F)cc2)cc1N
> 33 µM

====

# PROTOCOL NOTES: Volume of distribution at steady state in Sprague-Dawley rat at 1 mg/kg, iv
# Assay type: ADME, organism-based
# EXPERIMENTAL PARAMETERS: in vivo, read-out: Vdss
QUANTITY MEASURED: Vd (L/kg)
Provide the reading as a plain figure in L/kg.

// Vd lookup, key: Nc1cc(S(=O)(=O)c2ccccc2OC(F)(F)F)cnc1C(=O)NC[C@@H](O)C(F)(F)F
5.1

// Vd lookup, key: COc1ccc(S(=O)(=O)c2cc(C(N)=O)c(NC(=O)C(C)(C)O)s2)cc1
2.7

// Vd lookup, key: Nc1cc(S(=O)(=O)c2ccc(OC(F)(F)F)cc2)cnc1C(=O)NC[C@@H](O)C(F)(F)F
6

// Vd lookup, key: C[C@H](O)CNC(=O)c1ncc(S(=O)(=O)c2ccc(OC(F)(F)F)cc2)cc1N
1.1

// Vd lookup, key: Nc1cc(S(=O)(=O)c2ccc(F)cc2)cnc1C(=O)NC[C@@H](O)C(F)(F)F
2.9

// Vd lookup, key: Nc1cc(S(=O)(=O)N2CCC(OC(F)(F)F)CC2)cnc1C(=O)NCC(O)C(F)(F)F (stereo unspecified)
3.2
